B1: tRNA (parent)
chain: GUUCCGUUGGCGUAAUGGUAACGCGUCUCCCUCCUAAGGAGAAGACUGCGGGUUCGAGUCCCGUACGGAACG

# Variants of: B1
# EXPERIMENT: yeast fitness relative to wild type (ratio to wild type); higher = fitter; tRNA-Arg(CCU), competitive growth, 37 C, YPD
This sample holds only a part of the variants without activity.
Give yes (1) when the value for yeast fitness is at least 0.7. Give no (0) when it is less.

A selection of reference data follows.
             variant_descriptor  answer_label
0                C60G C66G A69G        no (0)
1                 U3C G17A U54C        no (0)
2  U3A G10C A36U A40C A57G C60G        no (0)

Prompt line: Hello, I need to know if C30U C60A has measured yeast fitness not below 0.7. Thanks!
Response line: no (0)

Prompt line: Reported yeast fitness at or above 0.7? C11U C24A
Response line: no (0)

Prompt line: Tell me whether yeast fitness is at least 0.7 here: C24G U28G C46G G67U
Response line: no (0)

Prompt line: Would you say G56A A70G shows yeast fitness at minimum 0.7?
Response line: yes (1)
